The reported numbers originate from paper PMC5278714.

testName: Multiple-ascending-dose phase 1 study: plasma and urine pharmacokinetics
Format: in vivo, humans
cond: human, plasma, iv, 200 mg, 200 mg IV once weekly x2, day 1, sampling interval 144 h, arithmetic mean
Numbered stars: 1 amine (or outer) side, 2 acyl side, 3 side chain; on linkers, the order of the positions; unused ones are H or OH. Bridge positions count the residues as written; N and C are the ends. Square brackets hold non-standard residues; d marks the D form. Peptide text beside a SMILES is read from it. * marks the point of attachment. Orn(4R-OH,5R-OCH2CH2NMe3+) = C[N+](C)(C)CCO[C@@H](N[*:3])[C@H](O)C[C@H](N[*:1])C(=O)[*:2]; pTerphenylCO(4''-OnC5H11) = CCCCCOc1ccc(-c2ccc(-c3ccc(C(=O)*)cc3)cc2)cc1; hTyr(3S-OH,4S-OH) = N[C@H](C(=O)O)[C@H](O)[C@@H](O)c1ccc(O)cc1; Pro(3S-OH,4S-Me) = C[C@H]1CN[C@H](C(=O)O)[C@H]1O; Hyp = O=C(O)[C@@H]1C[C@@H](O)CN1

{"compound": "CCCCCOc1ccc(-c2ccc(-c3ccc(C(=O)N[C@H]4C[C@@H](O)[C@@H](OCC[N+](C)(C)C)NC(=O)[C@@H]5[C@@H](O)[C@@H](C)CN5C(=O)[C@H]([C@@H](C)O)NC(=O)[C@H]([C@H](O)[C@@H](O)c5ccc(O)cc5)NC(=O)[C@@H]5C[C@@H](O)CN5C(=O)[C@H]([C@@H](C)O)NC4=O)cc3)cc2)cc1 [CD101] ({pTerphenylCO(4''-OnC5H11)}-[Orn(4R-OH,5R-OCH2CH2NMe3+)]T[Hyp][hTyr(3S-OH,4S-OH)]T[Pro(3S-OH,4S-Me)]; lactam 1-C)", "clearance": "4.65 mL/min"}

----------
testName: Single-ascending-dose phase 1 study: plasma and urine pharmacokinetics
Assay type: in vivo, humans
cond: human, plasma, iv, 400 mg, single 400 mg IV infusion over 1 h, plasma, arithmetic mean; read-out: Vss (volume of distribution at steady state)
Numbered stars: 1 amine (or outer) side, 2 acyl side, 3 side chain; on linkers, the order of the positions; unused ones are H or OH. Bridge positions count the residues as written; N and C are the ends. Square brackets hold non-standard residues; d marks the D form. Peptide text beside a SMILES is read from it. * marks the point of attachment. Orn(4R-OH,5R-OCH2CH2NMe3+) = C[N+](C)(C)CCO[C@@H](N[*:3])[C@H](O)C[C@H](N[*:1])C(=O)[*:2]; pTerphenylCO(4''-OnC5H11) = CCCCCOc1ccc(-c2ccc(-c3ccc(C(=O)*)cc3)cc2)cc1; hTyr(3S-OH,4S-OH) = N[C@H](C(=O)O)[C@H](O)[C@@H](O)c1ccc(O)cc1; Pro(3S-OH,4S-Me) = C[C@H]1CN[C@H](C(=O)O)[C@H]1O; Hyp = O=C(O)[C@@H]1C[C@@H](O)CN1

{"compound": "CCCCCOc1ccc(-c2ccc(-c3ccc(C(=O)N[C@H]4C[C@@H](O)[C@@H](OCC[N+](C)(C)C)NC(=O)[C@@H]5[C@@H](O)[C@@H](C)CN5C(=O)[C@H]([C@@H](C)O)NC(=O)[C@H]([C@H](O)[C@@H](O)c5ccc(O)cc5)NC(=O)[C@@H]5C[C@@H](O)CN5C(=O)[C@H]([C@@H](C)O)NC4=O)cc3)cc2)cc1 [CD101] ({pTerphenylCO(4''-OnC5H11)}-[Orn(4R-OH,5R-OCH2CH2NMe3+)]T[Hyp][hTyr(3S-OH,4S-OH)]T[Pro(3S-OH,4S-Me)]; lactam 1-C)", "Vd [L]": 35.9}

----------
testName: Multiple-ascending-dose phase 1 study: plasma and urine pharmacokinetics
Assay type: in vivo, humans
cond: human, plasma, iv, 400 mg, 400 mg IV once weekly x3, day 1, sampling interval 144 h, arithmetic mean
Numbered stars: 1 amine (or outer) side, 2 acyl side, 3 side chain; on linkers, the order of the positions; unused ones are H or OH. Bridge positions count the residues as written; N and C are the ends. Square brackets hold non-standard residues; d marks the D form. Peptide text beside a SMILES is read from it. * marks the point of attachment. Orn(4R-OH,5R-OCH2CH2NMe3+) = C[N+](C)(C)CCO[C@@H](N[*:3])[C@H](O)C[C@H](N[*:1])C(=O)[*:2]; pTerphenylCO(4''-OnC5H11) = CCCCCOc1ccc(-c2ccc(-c3ccc(C(=O)*)cc3)cc2)cc1; hTyr(3S-OH,4S-OH) = N[C@H](C(=O)O)[C@H](O)[C@@H](O)c1ccc(O)cc1; Pro(3S-OH,4S-Me) = C[C@H]1CN[C@H](C(=O)O)[C@H]1O; Hyp = O=C(O)[C@@H]1C[C@@H](O)CN1

{"molecule": "CCCCCOc1ccc(-c2ccc(-c3ccc(C(=O)N[C@H]4C[C@@H](O)[C@@H](OCC[N+](C)(C)C)NC(=O)[C@@H]5[C@@H](O)[C@@H](C)CN5C(=O)[C@H]([C@@H](C)O)NC(=O)[C@H]([C@H](O)[C@@H](O)c5ccc(O)cc5)NC(=O)[C@@H]5C[C@@H](O)CN5C(=O)[C@H]([C@@H](C)O)NC4=O)cc3)cc2)cc1 [CD101] ({pTerphenylCO(4''-OnC5H11)}-[Orn(4R-OH,5R-OCH2CH2NMe3+)]T[Hyp][hTyr(3S-OH,4S-OH)]T[Pro(3S-OH,4S-Me)]; lactam 1-C)", "unitSpec": "days", "half-life": 3.38}

----------
testName: Single-ascending-dose phase 1 study: plasma and urine pharmacokinetics
Type: in vivo, humans
cond: human; single 100 mg IV infusion over 1 h, plasma, arithmetic mean
Numbered stars: 1 amine (or outer) side, 2 acyl side, 3 side chain; on linkers, the order of the positions; unused ones are H or OH. Bridge positions count the residues as written; N and C are the ends. Square brackets hold non-standard residues; d marks the D form. Peptide text beside a SMILES is read from it. * marks the point of attachment. Orn(4R-OH,5R-OCH2CH2NMe3+) = C[N+](C)(C)CCO[C@@H](N[*:3])[C@H](O)C[C@H](N[*:1])C(=O)[*:2]; pTerphenylCO(4''-OnC5H11) = CCCCCOc1ccc(-c2ccc(-c3ccc(C(=O)*)cc3)cc2)cc1; hTyr(3S-OH,4S-OH) = N[C@H](C(=O)O)[C@H](O)[C@@H](O)c1ccc(O)cc1; Pro(3S-OH,4S-Me) = C[C@H]1CN[C@H](C(=O)O)[C@H]1O; Hyp = O=C(O)[C@@H]1C[C@@H](O)CN1
readoutKind: half-life (h)

{"compound": "CCCCCOc1ccc(-c2ccc(-c3ccc(C(=O)N[C@H]4C[C@@H](O)[C@@H](OCC[N+](C)(C)C)NC(=O)[C@@H]5[C@@H](O)[C@@H](C)CN5C(=O)[C@H]([C@@H](C)O)NC(=O)[C@H]([C@H](O)[C@@H](O)c5ccc(O)cc5)NC(=O)[C@@H]5C[C@@H](O)CN5C(=O)[C@H]([C@@H](C)O)NC4=O)cc3)cc2)cc1 [CD101] ({pTerphenylCO(4''-OnC5H11)}-[Orn(4R-OH,5R-OCH2CH2NMe3+)]T[Hyp][hTyr(3S-OH,4S-OH)]T[Pro(3S-OH,4S-Me)]; lactam 1-C)", "readoutNumber": 146}

----------
testName: Multiple-ascending-dose phase 1 study: plasma and urine pharmacokinetics
Type: in vivo, humans
cond: human, plasma, iv, 400 mg, 400 mg IV once weekly x3, day 15, sampling interval 480 h, arithmetic mean
Numbered stars: 1 amine (or outer) side, 2 acyl side, 3 side chain; on linkers, the order of the positions; unused ones are H or OH. Bridge positions count the residues as written; N and C are the ends. Square brackets hold non-standard residues; d marks the D form. Peptide text beside a SMILES is read from it. * marks the point of attachment. Orn(4R-OH,5R-OCH2CH2NMe3+) = C[N+](C)(C)CCO[C@@H](N[*:3])[C@H](O)C[C@H](N[*:1])C(=O)[*:2]; pTerphenylCO(4''-OnC5H11) = CCCCCOc1ccc(-c2ccc(-c3ccc(C(=O)*)cc3)cc2)cc1; hTyr(3S-OH,4S-OH) = N[C@H](C(=O)O)[C@H](O)[C@@H](O)c1ccc(O)cc1; Pro(3S-OH,4S-Me) = C[C@H]1CN[C@H](C(=O)O)[C@H]1O; Hyp = O=C(O)[C@@H]1C[C@@H](O)CN1
readoutKind: clearance

{"compound": "CCCCCOc1ccc(-c2ccc(-c3ccc(C(=O)N[C@H]4C[C@@H](O)[C@@H](OCC[N+](C)(C)C)NC(=O)[C@@H]5[C@@H](O)[C@@H](C)CN5C(=O)[C@H]([C@@H](C)O)NC(=O)[C@H]([C@H](O)[C@@H](O)c5ccc(O)cc5)NC(=O)[C@@H]5C[C@@H](O)CN5C(=O)[C@H]([C@@H](C)O)NC4=O)cc3)cc2)cc1 [CD101] ({pTerphenylCO(4''-OnC5H11)}-[Orn(4R-OH,5R-OCH2CH2NMe3+)]T[Hyp][hTyr(3S-OH,4S-OH)]T[Pro(3S-OH,4S-Me)]; lactam 1-C)", "result": "2.1 mL/min"}
